Listing: Ki of selected compounds
TARGET_ENTITY: Adenosine receptor A2a (Homo sapiens, UniProt P29274)
Sequence (P29274 whole entry): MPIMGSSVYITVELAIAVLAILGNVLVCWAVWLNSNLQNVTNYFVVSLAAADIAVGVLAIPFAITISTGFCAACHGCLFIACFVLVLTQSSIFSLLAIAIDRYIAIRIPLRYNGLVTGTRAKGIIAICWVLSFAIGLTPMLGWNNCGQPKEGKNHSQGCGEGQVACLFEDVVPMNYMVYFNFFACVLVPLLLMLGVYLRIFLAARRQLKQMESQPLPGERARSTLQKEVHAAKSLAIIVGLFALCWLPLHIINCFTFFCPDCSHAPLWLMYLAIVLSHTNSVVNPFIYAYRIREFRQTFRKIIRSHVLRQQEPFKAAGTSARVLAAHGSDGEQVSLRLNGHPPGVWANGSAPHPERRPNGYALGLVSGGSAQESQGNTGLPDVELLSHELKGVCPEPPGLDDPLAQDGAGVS
TEST_PROTOCOL: Antagonist activity at adenosine A2A receptor
Your answer should be a plain number; it is taken to be in nM.

>>> print(df.to_string())
                            compound_smiles                             target_entity  data_value
0  Nc1nc(-c2ccccc2)c2c(n1)-c1c(CN3CCCC3)cccc1C2=O  Adenosine receptor A2a (Homo sapiens, UniProt P29274)         2.5
1  Nc1nc(-c2ccc(F)cc2)c2c(n1)-c1c(CN3CCCC3)cccc1C2=O  Adenosine receptor A2a (Homo sapiens, UniProt P29274)         3.6
2  COc1cccc(-c2nc(N)nc3c2C(=O)c2ccccc2-3)c1  Adenosine receptor A2a (Homo sapiens, UniProt P29274)         1.6
3  CN(C)CCN(C)Cc1cccc2c1-c1nc(N)nc(-c3ccccc3)c1C2=O  Adenosine receptor A2a (Homo sapiens, UniProt P29274)        40.1

# ---- query compound ----
Tested on Adenosine receptor A2a (Homo sapiens, UniProt P29274): Nc1nc(-c2ccc(Cl)o2)c2c(n1)-c1ccccc1C2=O . Observed Ki: 0.2

* * *

TARGET_ENTITY: Adenosine receptor A1 (Homo sapiens, UniProt P30542)
Sequence (P30542 whole entry): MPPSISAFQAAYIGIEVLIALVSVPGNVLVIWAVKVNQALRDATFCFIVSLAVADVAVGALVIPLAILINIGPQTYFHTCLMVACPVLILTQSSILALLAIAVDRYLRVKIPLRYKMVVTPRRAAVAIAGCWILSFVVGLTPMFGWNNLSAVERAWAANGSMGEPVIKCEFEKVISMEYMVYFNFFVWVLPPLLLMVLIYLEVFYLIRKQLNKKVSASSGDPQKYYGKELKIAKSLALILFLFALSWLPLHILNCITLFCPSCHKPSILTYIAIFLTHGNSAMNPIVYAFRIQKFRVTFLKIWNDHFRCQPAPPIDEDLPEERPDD
TEST_PROTOCOL: Antagonist activity at adenosine A1 receptor
PROPERTY_MEASURED: Ki (nM)
Your answer should be a plain number; it is taken to be in nM.

// below: answered molecules
>>> df
                            compound_smiles  data_value
0   Nc1nc(-c2ccc(Cl)o2)c2c(n1)-c1ccccc1C2=O         0.5
1  CCN(CC)Cc1cccc2c1-c1nc(N)nc(-c3ccccc3)c1C2=O         107
2  CC(=O)N1CCN(Cc2cccc3c2-c2nc(N)nc(-c4ccccc4)c2C3=O)CC1        34.1
3  Nc1nc(-c2ccccc2)c2c(n1)-c1c(CN3CCOCC3)cccc1C2=O        32.9
4  CN(C)CCN(C)Cc1ccc2c(c1)-c1nc(N)nc(-c3ccccc3)c1C2=O          20

Query CN(C)CCN(C)Cc1cccc2c1-c1nc(N)nc(-c3ccccc3)c1C2=O yields Ki of 119

Query CN(C)CCN(C)c1ccc(-c2nc(N)nc3c2C(=O)c2ccccc2-3)o1 yields Ki of 40

Query Nc1nc(-c2ccc(F)cc2)c2c(n1)-c1cc(CN3CCCCC3)ccc1C2=O yields Ki of 95.7

Query N#Cc1cccc(-c2nc(N)nc3c2C(=O)c2cccc(CN4CCOCC4)c2-3)c1 yields Ki of 75

Query Nc1nc(-c2ccccc2)c2c(n1)-c1ccccc1C2=O yields Ki of 1.1

Query COc1cccc(-c2nc(N)nc3c2C(=O)c2ccccc2-3)c1 yields Ki of 2.5

* * *

TARGET_ENTITY: UniProt P30542
TEST_PROTOCOL: Antagonist activity at adenosine A1 receptor
PROPERTY_MEASURED: pKi
Reminder that pKi means the negative base-10 logarithm of the concentration expressed in mol/L.

In [3]: df
Out[3]:
                                   compound  data_value
0  CC1CCC(C)N1Cc1cccc2c1-c1nc(N)nc(-c3ccccc3)c1C2=O (stereo not given)        6.85
1       Nc1nc(-c2ccco2)c2c(n1)-c1ccccc1C2=O        9.40
2  Nc1nc(-c2ccccc2)c2c(n1)-c1c(CN3CCCCC3)cccc1C2=O        7.39
3  Nc1nc(-c2ccc(F)cc2)c2c(n1)-c1c(CN3CCOCC3)cccc1C2=O        6.81
4  Nc1nc(-c2ccccc2)c2c(n1)-c1c(CN3CCCC3)cccc1C2=O        6.94
5  CN1CCN(Cc2ccc3c(c2)-c2nc(N)nc(-c4ccc(F)cc4)c2C3=O)CC1        6.65
6  Nc1nc(-c2ccc(F)cc2)c2c(n1)-c1c(CN3CCCC3)cccc1C2=O        7.07
7  Nc1nc(-c2ccccc2)c2c(n1)-c1c(CN3CCCCCC3)cccc1C2=O        7.02
8  CN1CCN(Cc2cccc3c2-c2nc(N)nc(-c4ccccc4)c2C3=O)CC1        7.03

# ---- query compound ----
Query Nc1nc(-c2ccc(F)cc2)c2c(n1)-c1cc(CN3CCCC3)ccc1C2=O yields pKi of 7.18

// data source = ChEMBL document CHEMBL1157891
